- System tested: human D2R/β-arrestin (Homo sapiens (Human), UniProt P14416)
- Sequence (P14416 whole entry): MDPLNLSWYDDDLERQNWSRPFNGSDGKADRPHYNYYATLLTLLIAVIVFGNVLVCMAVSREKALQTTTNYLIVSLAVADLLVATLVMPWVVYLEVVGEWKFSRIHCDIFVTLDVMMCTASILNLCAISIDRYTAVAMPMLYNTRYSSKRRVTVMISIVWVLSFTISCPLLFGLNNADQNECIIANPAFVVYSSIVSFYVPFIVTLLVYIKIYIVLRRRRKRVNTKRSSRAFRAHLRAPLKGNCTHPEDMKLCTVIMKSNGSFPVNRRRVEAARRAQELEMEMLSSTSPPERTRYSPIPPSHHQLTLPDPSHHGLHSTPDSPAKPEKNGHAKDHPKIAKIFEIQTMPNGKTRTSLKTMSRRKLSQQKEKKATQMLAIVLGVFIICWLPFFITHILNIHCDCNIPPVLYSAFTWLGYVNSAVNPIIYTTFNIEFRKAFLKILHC
- Assay text: Gi/cAMP agonist assay (Lance Ultra cAMP, Forskolin)
- Type: cell-based
- Conditions used: CHO-K1 cell line expressing human D2R/β-arrestin
pEC50: −log10 of the molar value.
Property: pEC50

{"columns": ["Molecule", "pEC50"],
 "data": [
  ["COc1cccc(C(NCC2CCN(CCOc3ccccc3)CC2)c2ccccn2)c1 (stereo not shown) [Compound 80]", "6.00 to 7.00"],
  ["O=C(NC(c1ccccc1)c1ccc(F)cc1)C1CCN(CCOc2ccccc2)CC1 (single isomer, unassigned) [Compound 45b]", "6.00 to 7.00"],
  ["O=C(NC(c1ccc(Cl)cc1)c1ccccn1)C1CCN(CCOc2ccccc2C(F)(F)F)CC1 (stereo not shown) [Compound 6]", "< 4.52"],
  ["O=C(NC(c1ccc(Cl)cc1)c1ccccn1)C1CCN(CCOc2ccccc2)CC1 (single isomer, unassigned) [Compound 63a]", "6.00 to 7.00"],
  ["CC(C)N(CC1CCN(CCOc2ccccc2)CC1)C(c1ccc(Cl)cc1)c1ccccn1 (single isomer, unassigned) [Compound 103b]", "> 7.00"]
]}

Value wanted: pEC50 (human D2R/β-arrestin (Homo sapiens (Human), UniProt P14416)) of entry CC(C1CCN(CCOc2ccccc2)CC1)N(C)C(c1ccc(Cl)cc1)c1ccccn1 (single isomer, unassigned) [Compound 97b]
6.00 to 7.00

Value wanted: pEC50 (human D2R/β-arrestin (Homo sapiens (Human), UniProt P14416)) of entry COc1cccc(C(NC(=O)C2CCN(CCOc3ccccc3Cl)CC2)c2ccccc2F)c1 (stereo not shown) [Compound 86]
< 4.52

----------
Microsomal Stability: % remaining after 60 minutes listing for selected compounds.
- Assay text: Microsomal stability, human
- Assay type: in vitro ADME
All answers are understood in %, so give the number only.

Worked set:
{"columns": ["Compound", "Units of measure", "Numeric result"],
 "data": [
  ["O=C(NC(c1ccccn1)c1ccccc1F)C1CCN(CCOc2ccccc2)CC1 (centres unmarked) [Compound 28]", "%", 87],
  ["O=C(NC(c1ccc(Cl)cc1)c1ccccn1)C1CCN(CCOc2ccc(F)cc2F)CC1 (centres unmarked) [Compound 115]", "%", 63]
]}

Look up Microsomal Stability: % remaining after 60 minutes: O=C(NC(c1ccc(C(F)(F)F)cc1)c1ccccn1)C1CCN(CCOc2ccccc2)CC1 (centres unmarked) [Compound 31]
53

Look up Microsomal Stability: % remaining after 60 minutes: O=C(NC(c1ccc(F)cc1)c1ccc(Cl)cc1)C1CCN(CCOc2ccccc2)CC1 (centres unmarked) [Compound 42]
40

Look up Microsomal Stability: % remaining after 60 minutes: O=C(NC(c1ccc(Cl)cc1)c1ccccn1)C1CCN(CCOc2ccc(C(F)(F)F)cc2)CC1 (centres unmarked) [Compound 8]
82

Look up Microsomal Stability: % remaining after 60 minutes: O=C(NC(c1ccccc1)c1ccc(Cl)cc1)C1CCN(CCOc2ccccc2)CC1 (centres unmarked) [Compound 39]
49

Look up Microsomal Stability: % remaining after 60 minutes: O=C(NC(c1ccc(Cl)cc1)c1ccccn1)C1CCN(CCn2ccc(=O)cc2)CC1 (centres unmarked) [Compound 11]
95

----------
- System tested: human D2R/β-arrestin (Homo sapiens (Human))
- Assay text: Gi/cAMP agonist assay (Lance Ultra cAMP, Forskolin)
- Assay type: cell-based
- Conditions used: CHO-K1 cell line expressing human D2R/β-arrestin
pEC50: −log10 of the molar value.
pEC50 listing for selected compounds.

Worked set:
{"columns": ["Compound", "pEC50"],
 "data": [
  ["O=C(NC(c1ccc(Cl)cc1)c1ccccc1F)C1CCN(CCOc2ccccc2F)CC1 (single isomer, unassigned) [Compound 96b]", "< 4.52"],
  ["O=C(NC(c1ccc(Cl)cc1)c1ccccn1)C1CCN(CCOc2ccccc2F)CC1 (single isomer, unassigned) [Compound 3b]", "> 7.00"],
  ["COc1cccc(C(NC(=O)C2CCN(CCOc3ccccc3)CC2)c2ccccc2)c1 (stereo not shown)", "< 4.52"],
  ["FC(F)(F)CN(CC1CCN(CCOc2ccccc2)CC1)C(c1ccc(Cl)cc1)c1ccccn1 (single isomer, unassigned) [Compound 125b]", "< 4.52"],
  ["Fc1ccccc1C(NCC1CCN(CCOc2ccccc2)CC1)c1ccc(Cl)cc1 (single isomer, unassigned) [Compound 81a]", "< 4.52"]
]}

Value wanted: pEC50 (human D2R/β-arrestin (Homo sapiens (Human))) of entry O=C(NC(c1ccc(F)cc1)c1ccc(Cl)cc1)C1CCN(CCOc2ccccc2)CC1 (single isomer, unassigned) [Compound 42a]
6.00 to 7.00

Value wanted: pEC50 (human D2R/β-arrestin (Homo sapiens (Human))) of entry O=C(NC(c1ccc(Cl)cc1)c1ccncc1F)C1CCN(CCOc2ccccc2)CC1 (stereo not shown)
6.00 to 7.00

----------
- Assay text: Microsomal stability, mouse
Consider the cut-off 20%. If the recorded Microsomal Stability: % remaining after 60 minutes is strictly smaller, the label is MET; if not, the label is NOT MET.

Use these answered entries as a reference point.
{"columns": ["Compound", "Category label"],
 "data": [
  ["O=C(NC(c1ccc(Cl)cc1)c1cccc(F)c1)C1CCN(CCOc2ccccc2)CC1 (centres unmarked) [Compound 41]", "NOT MET"],
  ["O=C(NC(c1ccc(Cl)cc1)c1ccccn1)C1CCN(CCOc2ccc3cccnc3c2)CC1 (centres unmarked) [Compound 16]", "NOT MET"],
  ["COc1ccccc1OCCN1CCC(C(=O)NC(c2ccc(Cl)cc2)c2ccccn2)CC1 (centres unmarked) [Compound 109]", "NOT MET"],
  ["Clc1ccc(C(NCC2CCN(CCOc3ccccc3)CC2)c2ccccn2)cc1 (centres unmarked) [Compound 114]", "MET"]
]}

Criterion: Microsomal Stability: % remaining after 60 minutes strictly below 20%. Is it met by O=C(NC(c1ccc(Cl)cc1)c1ccccn1)C1CCN(CCOc2ccccc2F)CC1 (centres unmarked) [Compound 3] ?
NOT MET

----------
Plasma Stability: % remaining after 5 hours listing for selected compounds.
- Assay text: Plasma stability, mouse
All answers are understood in %, so give the number only.

Worked set:
{"columns": ["Compound", "Numeric result"],
 "data": [
  ["O=C(NC(c1ccc(C(F)(F)F)cc1)c1ccccn1)C1CCN(CCOc2ccccc2)CC1 (centres unmarked)", 84.5],
  ["O=C(NC(c1ccc(Cl)cc1)c1ccccn1)C1CCN(CCOc2ccccc2F)CC1 (centres unmarked)", 100],
  ["O=C(NC(c1ccc(Cl)cc1)c1ccccn1)C1CCN(CCOc2ccc(F)cc2F)CC1 (centres unmarked)", 86.2],
  ["O=C(NC(c1ccc(F)cc1)c1ccccn1)C1CCN(CCOc2ccccc2)CC1 (centres unmarked)", 97]
]}

Look up Plasma Stability: % remaining after 5 hours: O=C(NC(c1ccc(F)cc1)c1ccccn1)C1CCN(CCOc2ccccc2C(F)(F)F)CC1 (centres unmarked)
89

----------
- Test system: plasma protein
- Assay text: Plasma protein binding, human
- Assay type: in vitro ADME
- Conditions used: plasma, read-out: Plasma Protein Binding % bound
fraction unbound listing for selected compounds.
In your answer, state the number alone without any accompanying words.

Worked set:
{"columns": ["Compound", "fraction unbound"],
 "data": [
  ["O=C(NC(c1ccc(F)cc1)c1ccccn1)C1CCN(CCOc2ccccc2F)CC1 (centres unmarked)", 0.042],
  ["O=C(NC(c1ccc(Cl)cc1)c1ccccn1)C1CCN(CCn2ccc(=O)cc2)CC1 (centres unmarked)", 0.485]
]}

Look up fraction unbound: O=C(NC(c1cccc(C(F)(F)F)c1)c1ccccn1)C1CCN(CCOc2ccccc2)CC1 (centres unmarked)
0.03

Look up fraction unbound: O=C(NC(c1ccc(Cl)cc1)c1ccccn1)C1CCN(CCOc2cc(F)ccc2F)CC1 (centres unmarked)
0.009

Look up fraction unbound: O=C(NC(c1cccc(Cl)c1)c1ccccn1)C1CCN(CCOc2ccccc2)CC1 (centres unmarked)
0.023

Look up fraction unbound: O=C(NC(c1ccc(F)cc1)c1ccc(Cl)cc1)C1CCN(CCOc2ccccc2)CC1 (centres unmarked)
0.007

Look up fraction unbound: O=C(NC(c1ccc(Cl)cc1)c1cccc(F)c1)C1CCN(CCOc2ccccc2)CC1 (centres unmarked)
0.007

Look up fraction unbound: O=C(NC(c1ccc(Cl)cc1)c1ccccc1F)C1CCN(CCOc2ccccc2)CC1 (centres unmarked)
0.011

----------
- Assay text: Microsomal stability, mouse
Consider the cut-off 40%. If the recorded Microsomal Stability: % remaining after 60 minutes is strictly smaller, the label is rule met; if not, the label is rule not met.

Use these answered entries as a reference point.
{"columns": ["Compound", "Category label"],
 "data": [
  ["O=C(NC(c1ccc(Cl)cc1)c1ccccn1)C1CCN(CCOc2ccccc2)CC1 (stereo not drawn)", "rule met"],
  ["O=C(NC(c1cccc(F)c1)c1ccccn1)C1CCN(CCOc2ccccc2)CC1 (stereo not drawn)", "rule not met"],
  ["COc1cccc(C(NC(=O)C2CCN(CCOc3ccccc3)CC2)c2ccccn2)c1 (stereo not drawn)", "rule not met"],
  ["O=C(NC(c1ccc(Cl)cc1)c1ccccn1)C1CCN(CCOc2ccc(C(F)(F)F)cc2)CC1 (stereo not drawn)", "rule not met"],
  ["O=C(NC(c1ccc(Cl)cc1)c1ccccn1)C1CCN(CCOc2cc(F)ccc2F)CC1 (stereo not drawn)", "rule met"],
  ["O=C(NC(c1ccc(C(F)(F)F)cc1)c1ccccn1)C1CCN(CCOc2ccccc2)CC1 (stereo not drawn)", "rule not met"],
  ["O=C(NC(c1ccccn1)c1ccccc1F)C1CCN(CCOc2ccccc2)CC1 (stereo not drawn)", "rule not met"],
  ["O=C(NC(c1ccc(Cl)cc1)c1ccccn1)C1CCN(CCOc2ccc(F)cc2)CC1 (stereo not drawn)", "rule not met"]
]}

Turning to the following compound.
Criterion: Microsomal Stability: % remaining after 60 minutes strictly below 40%. Is it met by O=C(NC(c1ccncc1)c1ccc(Cl)cc1)C1CCN(CCOc2ccccc2)CC1 (stereo not drawn) ?
rule met
